Cited source: the supplement of paper PMC10567573

B1: USP39 (parent)
chain: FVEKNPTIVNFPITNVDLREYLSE

variants of: B1; experiment: protein stability index of a GFP-peptide fusion (GPS, HEK-293T) (PSI 1-6); higher = more stable; settings: c terminus: a fixed tail appended;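 also: lentivirally expressed fusions sorted by FACS into six bins by GFP to DsRed ratio, PSI derived from sequencing read proportions per bin multiplied by bin number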
Would you mind labelling by protein stability index? At or over 2 is label 1, under is label 0.

mutantlabel=D17L classlabel="label 0"
mutantlabel=N10W classlabel="label 1"
mutantlabel=S23G classlabel="label 0"
mutantlabel=T14W classlabel="label 1"
mutantlabel=I8L classlabel="label 1"
mutantlabel=Y21W classlabel="label 0"
mutantlabel=F1W classlabel="label 1"
mutantlabel=I13F classlabel="label 1"
mutantlabel=T7D classlabel="label 1"
mutantlabel=D17W classlabel="label 0"
mutantlabel=P6L classlabel="label 0"
mutantlabel=N5Y classlabel="label 1"
mutantlabel=T14G classlabel="label 0"
mutantlabel=N10H classlabel="label 0"
mutantlabel=N10T classlabel="label 0"
mutantlabel=I8D classlabel="label 1"
mutantlabel=E3Y classlabel="label 1"
mutantlabel=L22E classlabel="label 0"
